test_target: UniProt P03372
Sequence (P03372 whole entry): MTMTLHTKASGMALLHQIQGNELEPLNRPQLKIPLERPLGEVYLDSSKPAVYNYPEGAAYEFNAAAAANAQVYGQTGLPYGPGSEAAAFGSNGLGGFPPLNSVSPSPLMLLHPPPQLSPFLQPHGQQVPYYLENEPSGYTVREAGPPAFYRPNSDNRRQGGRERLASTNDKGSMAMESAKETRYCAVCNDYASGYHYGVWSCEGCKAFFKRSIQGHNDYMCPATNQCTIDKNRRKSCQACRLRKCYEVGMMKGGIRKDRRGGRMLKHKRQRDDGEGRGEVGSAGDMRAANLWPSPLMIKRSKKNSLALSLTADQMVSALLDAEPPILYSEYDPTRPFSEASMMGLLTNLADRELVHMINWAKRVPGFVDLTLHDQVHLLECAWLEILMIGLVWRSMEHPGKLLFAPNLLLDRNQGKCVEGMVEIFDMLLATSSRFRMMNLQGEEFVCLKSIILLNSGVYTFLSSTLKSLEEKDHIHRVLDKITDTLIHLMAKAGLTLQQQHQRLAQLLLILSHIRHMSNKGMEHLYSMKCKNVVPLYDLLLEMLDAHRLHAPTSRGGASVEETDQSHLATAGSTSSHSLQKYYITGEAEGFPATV
protocol_summary: ERα degradation (MCF7 cells), in-cell Western
Type: cell-based
condition_set: remaining ERα protein at 10 μM ligand, MCF7 cells, relative to DMSO control
measured_endpoint: % ERα remaining (%)
Note: unit % is implicit; provide only the numeric part.

# count of solved cases: 3
- Cc1ccc(C)c(-c2sc3cc(O)ccc3c2Oc2ccc(/C=C/C(=O)O)cc2)c1: 15
- O=C(O)/C=C/c1ccc(Oc2c(-c3ccccc3CN3CCCC3)sc3cc(O)ccc23)cc1: 16
- CCc1ccccc1-c1sc2cc(O)ccc2c1Oc1ccc(/C=C/C(=O)O)cc1: 23

Query block: Give reported % ERα remaining for `O=C(O)/C=C/c1ccc(Oc2c(-c3ccc(C(F)(F)F)cc3)sc3cc(O)ccc23)cc1` (UniProt P03372)
Result block: 18

Query block: Fill in % ERα remaining for `Cc1nnc(/C=C/c2ccc(Oc3c(-c4ccc(F)cc4C)sc4cc(O)ccc34)cc2)[nH]1` tested with UniProt P03372.
Result block: 28

Query block: Name the recorded % ERα remaining of `CNC(=O)/C=C/c1ccc(Oc2c(-c3ccc(F)cc3)sc3cc(O)ccc23)cc1` , assay system UniProt P03372.
Result block: 36

Query block: Under UniProt P03372: report % ERα remaining of `O=C(O)/C=C/c1ccc(Oc2c(-c3ccccc3C(F)(F)F)sc3cc(O)ccc23)cc1` .
Result block: 17

Query block: Param request: % ERα remaining | system UniProt P03372 | item `COCc1ccccc1-c1sc2cc(O)ccc2c1Oc1ccc(/C=C/C(=O)O)cc1`
Result block: 14

Query block: Provide the reported % ERα remaining (system: UniProt P03372) for `Cc1cccc(C(C)C)c1-c1sc2cc(O)ccc2c1Oc1ccc(/C=C/C(=O)O)cc1`
Result block: 10

Origin of measurements: patent US10058534B2
